- assay name: In vitro cytotoxicity assay (CCK-8)
- Format: cell-based, human
- cond: human, human oral keratinocytes (HOK), 5 min exposure
assay endpoint: IC50 at 5 min

Lookup: Requested field: IC50 at 5 min. Item: CC(C)(Cc1ccc2ccccc2c1)NC[C@H](O)CNc1cc(C(F)(F)F)cc(C(F)(F)F)c1 [II-6s]
Found: > 125 µg/mL

----------
- assay name: In vitro cytotoxicity assay (CCK-8)
- Format: cell-based, human
- cond: human, human gingival epithelial cells (HGE), 5 min exposure
assay endpoint: IC50 at 5 min

Lookup: Requested field: IC50 at 5 min. Item: CC(C)(Cc1ccc2ccccc2c1)NC[C@H](O)CNc1cc(C(F)(F)F)cc(C(F)(F)F)c1 [II-6s]
Found: > 125 µg/mL

----------
- assay name: In vitro cytotoxicity assay (CCK-8)
- Format: cell-based
- cond: mouse, RAW264.7 macrophages; RAW264.7, 5 min exposure
assay endpoint: IC50 at 5 min

Lookup: Requested field: IC50 at 5 min. Item: CC(C)(Cc1ccc2ccccc2c1)NC[C@H](O)CNc1cc(C(F)(F)F)cc(C(F)(F)F)c1 [II-6s]
Found: > 125 µg/mL
